- METHOD DESCRIPTION: yeast display, Sf9 membrane polyspecificity reagent, FACS + sequencing; frameworks hold sequencing errors
READOUT KIND: polyreactivity (PSR sort gate)

Record excerpt, results attached:
QVQLVESGGGLVQAGGSLRLSCAASGFTFPWYTMGWYRQAPGKERELGAAINSRGGSTYYADSVKGRFTISRDNAKNTVYLQMNSLKPEDTAVYYCATRSFGRMDYWGQGTQVTVSS = high polyreactivity
QVQLVESGGGLVQAGGSLRLSCAASGITLLYNAMGWSRQAPGKERELVAGITGRGGSTYYADSVKGRFTISRDNAKNTVYLQMNSLKPEDTAVYYCAATTDYRYVGRIVIRDEHWGQGTQVTVSS = low polyreactivity
QVQLVESGGGLVQAGGSLRLSCAASGRIVRNAIGWYRQAPGKERELVAAISRSGGSTYYADSVKGRFTISRDNAKNTVYLQMNSLKPEDTAVYYCDKRSTSQSLQGEYWGQGTQVTVSS = high polyreactivity
QVQLVESGGGLVQAGGSLRLSCAASGRIFQGYAKGWYRQAPGKEREFVAAITASGGTTYYADSVKGRFTISRDNAKNTVYLQMNSLKPEDTAVYYCAKYRYTVAGYNYWGQGTQVTVSS = high polyreactivity
QVQLVESGGGLVQAGGSLRLSCAASGRIFRLYAMGWYRQAPGKERELVASISKSGGSTYYADSVKGRFTISRDNAKNTVYLQMNSLKPADSAVYYCAADYRTHGGYEGTFDYWGQGTQVTVSS = low polyreactivity

# lookup: polyreactivity (PSR sort gate) of `QVQLVESGGGLVQAGGSLRLSCAASGFTFYRNAMRWYRQAPGKERELVAAISRGGRTYYADSVKGRFTISRDNAKNTVYLQMNSLKPEDTAVYYCARKYTRKIPASDYWGQGTQVTVSS`
high polyreactivity

# lookup: polyreactivity (PSR sort gate) of `QVQLVESGGGLVQAGGSLRLSCAASGSTFDYYAMGWYRQAPGKVRELGAAITTSGGSTYYADSVKGRFTISRDNAKNTVYLQINCLKPEDTAVYYCAAESYWYGTSPYYYLYEYDYWGQGTQVTVSS`
high polyreactivity

# lookup: polyreactivity (PSR sort gate) of `QVQLVESGGGLVQAGGSLRLSCAASGFIFRPYAMGWYRQAPGKERELVAAISYGDGITYYADSVKGRFTISRDNAKNTVYLQMNSLKPEDTAVYDCAVDSHPEEYDYWGQGTQVTVSS`
low polyreactivity

# lookup: polyreactivity (PSR sort gate) of `QVQLVESGGGLVQAGGSLRLSCAASGSTYGGYTMGWYRPAPGKVWELVAAIRLSGVSTYYADSVKGRFTISRDNAKNTVYLQMNSLKPEDTAVYYCAARGWYRYGSVYYIGDYWGQGTQVTVSS`
high polyreactivity

# lookup: polyreactivity (PSR sort gate) of `QVKLVESGGGLFQAGGSLRLSCADSGRTFYYYGMPWYIQETGKERELVAAINRGDSTKYADSVKGRFTISLDNAKNNVYLHMNSLKPEDTAVYYCNARLRCSFARFIYEYWRQGTQVTVSS`
low polyreactivity

# lookup: polyreactivity (PSR sort gate) of `QFQLVESGGGLVQAGGSLRVSSAASGITLPYYAMGWYRQAPGKDRELVAGISSRGGSTYYADSVKGRFTISRDNAKNTVYLQMNSLKPEDTAVYYCAAKVASTRLGPAYGYWGQGTQVTVSS`
high polyreactivity
